- procedure text: yeast display, Sf9 membrane polyspecificity reagent, FACS + sequencing; frameworks hold sequencing errors
property label: polyreactivity (PSR sort gate)

* QVQLLETGGGLVQAGRSLRLSCAASGFIFRANAMGWYRQAPGNERELVATISRSGGSTSYADSVKGRFTISRDNAKNTVYLQMNSLKPEDTAVYYCNKRTPYLRPILDYWGQGSQVTVSS | high polyreactivity
* QVQLLESGGGLVQAGGSLGCAASGNISTRSEMGWYRQAPGKEREFVATINSGGITNYADSVKGRFTISRDNENNTVYLGMNSLKPEDTAVYYRAVYVYFSDPYDYWGQGTQVTVSS | low polyreactivity
* QVQLVESGGGLVQAGGSLRLICAASGRIIGKNAMGWYRQARGKERELVAAIRYNGGRTYYADSVKGRFTISRDNAKNTVYLQMNSLKPEDTAVYYCAARWRSWRYKYDYWGQGTQVTVSS | high polyreactivity
* QVQLVESGGGLVQAGGSLRLSCAASGNIFPYYAMGWYRQAPGKERELVAVISYGGGNTRYADSVKGRFTISRDNAKNTVYLQMNSLIPEDTAVYYCAARRWGAAPRPYEGYYWGQGSQVTVSS | low polyreactivity
* QVQLVESGGGLVQAGGSLRLSCAASGRTFYPYAMGWSRQAPGKERELVAAISWNGGRTYYADSVKGRFTISRDNAKNTVYLQMNSLKPEDTAVYYCAADTAYYDFDYWGQGTQVTVSS | low polyreactivity
* QVQLVESGGGLVQAGGSLRLSCAASGRIFYGNAMGWYRQAPGKERELVAVITSSGGSTYYADSVKGRFTISRDNAKNTVYLQMNSLKPEDTAVYYCAKYYRHWYTHLGYDYWGQGTQVTVSS | high polyreactivity
* QVQLVESGGGLVQAGGSLRLSCAASGFTSGNYAMGWYRQAPGKEREFVAAITWGDGSTFYADSVKGRFTISRDNAKNTVYLQMNSLKPEDTAVYYCAADYSRTYRAYDYWGQGTQVTVSS | low polyreactivity
* QVQLVESGGGLVQAGGSLRLSCAASGSTFSYYPMGWYREAPGQERELVAAISSRGSSTYYADSVKGRFTISRDNAKNTVYLQMNSLKPEDTAVYYCNAERVVYKWYDYWGQVTQVTVSS | high polyreactivity
* QVQLVESAGGLVQAGGSLRLSCAATGRTFYVNAMGWYRQAPGKERELVAAISSGDSSTYYADSVKGRFTSSRDNAKNTVYLQMNSLKPEDTAVYYCAAEVWVYFEYEYWGQGTQVTVSS | high polyreactivity
* QVQLVESGGGLVQAGGSLRLSCAASGSIFGNNAMGWYRQAPGKERELVATISYSGDSTYYADSVKGRFTISRDNAKNTVYLQMNSLKPEDTAVYYCAKQSDWVYKDRAYDYWGQGTQVTVSS | low polyreactivity
* QVQLVESGGGLVQAGGRLRLSCAASGRIFKTYAMGWYRQAPGKERELVAAISIRGGSTYYAVSVKGRFTISRDNAKNTVYLQMNSLKPEDTAVYYCNALYGRQIVDYDYWGQGTQVTVSS | high polyreactivity
